biological target: human PDE2A1 (Homo sapiens (Human)); assay: IMAP FP PDE selectivity panel, human PDE2A1; type: biochemical; conditions: Human PDE2, Lab B; read-out: Human PDE2 Ki (nM) - Lab B
Sequence (O00408 other isoform, or with tags, fused parts or gaps): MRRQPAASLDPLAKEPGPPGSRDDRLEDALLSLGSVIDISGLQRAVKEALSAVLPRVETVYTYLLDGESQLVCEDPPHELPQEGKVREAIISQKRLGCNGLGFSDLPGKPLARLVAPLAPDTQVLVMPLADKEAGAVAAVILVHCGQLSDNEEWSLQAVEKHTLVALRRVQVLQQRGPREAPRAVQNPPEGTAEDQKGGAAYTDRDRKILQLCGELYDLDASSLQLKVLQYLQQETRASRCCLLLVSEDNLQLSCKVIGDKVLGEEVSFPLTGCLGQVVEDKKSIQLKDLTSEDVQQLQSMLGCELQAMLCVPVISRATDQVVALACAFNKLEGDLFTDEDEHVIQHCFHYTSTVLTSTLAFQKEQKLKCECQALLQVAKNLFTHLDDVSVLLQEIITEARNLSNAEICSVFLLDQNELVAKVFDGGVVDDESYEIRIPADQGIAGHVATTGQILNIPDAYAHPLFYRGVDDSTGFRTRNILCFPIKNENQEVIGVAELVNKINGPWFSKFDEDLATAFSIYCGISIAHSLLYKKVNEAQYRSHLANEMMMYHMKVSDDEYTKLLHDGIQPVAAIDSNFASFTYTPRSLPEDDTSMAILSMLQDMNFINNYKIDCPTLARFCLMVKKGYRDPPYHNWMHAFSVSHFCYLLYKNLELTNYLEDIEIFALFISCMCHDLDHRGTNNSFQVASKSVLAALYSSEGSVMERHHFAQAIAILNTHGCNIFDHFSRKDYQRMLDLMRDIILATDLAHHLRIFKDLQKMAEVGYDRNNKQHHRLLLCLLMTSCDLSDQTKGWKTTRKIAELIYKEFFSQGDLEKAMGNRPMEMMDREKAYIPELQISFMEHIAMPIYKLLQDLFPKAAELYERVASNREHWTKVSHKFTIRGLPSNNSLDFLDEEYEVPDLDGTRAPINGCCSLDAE
MEASURED_ENDPOINT: Ki (nM)

State, in one line, measured Ki of CC1([C@@H](NC(=O)c2cc(=O)[nH]c(C3CC3)n2)c2ccc(S(F)(F)(F)(F)F)cc2)CC1 [Example 454] 4

a: CCC(C)(NC(=O)c1cc(=O)[nH]c(C)n1)c1ccc(C(F)(F)F)cc1 (single isomer, unassigned) [Example 669]
b: Cc1nc(C(=O)NC(c2ccc(S(F)(F)(F)(F)F)cc2F)C(C)(C)C)cc(=O)[nH]1 (single isomer, unassigned) [Example 720]
Please indicate which item has the smaller measured Ki: a versus b Record your answer as the label of the chosen record. b
(b: 2.6 nM, a: 15 nM)

I: CC[C@@H](NC(=O)c1cc(=O)[nH]c(Cc2ccc(OC)c(F)c2)n1)c1ccc(C(F)(F)F)c(F)c1 [Example 527]
II: Cc1nc(C(=O)NC(C)(C)c2ccc(C(F)(F)F)cc2Cl)cc(=O)[nH]1 [Example 593]
III: COc1ccc(C(C)(C)c2nc(C(=O)N[C@@H](c3ccc(OC(F)(F)F)cc3)C3CC3)cc(=O)[nH]2)cc1 [Example 501]
rank_up(items): orders items by reported Ki in ascending numerical order. Field: ranking. Enter the labels in the order requested. I, II, III

* * *

target: Rhesus PDE2A3 (Macaca mulatta); assay: PDE2 fluorescence polarization (IMAP FP) inhibition assay, rhesus enzyme; assay type: biochemical, rhesus macaque; details: Rhesus PDE2, Lab B; read-out: Rhesus PDE2 Ki (nM) - Lab B
Sequence (B3VTJ2 1-941): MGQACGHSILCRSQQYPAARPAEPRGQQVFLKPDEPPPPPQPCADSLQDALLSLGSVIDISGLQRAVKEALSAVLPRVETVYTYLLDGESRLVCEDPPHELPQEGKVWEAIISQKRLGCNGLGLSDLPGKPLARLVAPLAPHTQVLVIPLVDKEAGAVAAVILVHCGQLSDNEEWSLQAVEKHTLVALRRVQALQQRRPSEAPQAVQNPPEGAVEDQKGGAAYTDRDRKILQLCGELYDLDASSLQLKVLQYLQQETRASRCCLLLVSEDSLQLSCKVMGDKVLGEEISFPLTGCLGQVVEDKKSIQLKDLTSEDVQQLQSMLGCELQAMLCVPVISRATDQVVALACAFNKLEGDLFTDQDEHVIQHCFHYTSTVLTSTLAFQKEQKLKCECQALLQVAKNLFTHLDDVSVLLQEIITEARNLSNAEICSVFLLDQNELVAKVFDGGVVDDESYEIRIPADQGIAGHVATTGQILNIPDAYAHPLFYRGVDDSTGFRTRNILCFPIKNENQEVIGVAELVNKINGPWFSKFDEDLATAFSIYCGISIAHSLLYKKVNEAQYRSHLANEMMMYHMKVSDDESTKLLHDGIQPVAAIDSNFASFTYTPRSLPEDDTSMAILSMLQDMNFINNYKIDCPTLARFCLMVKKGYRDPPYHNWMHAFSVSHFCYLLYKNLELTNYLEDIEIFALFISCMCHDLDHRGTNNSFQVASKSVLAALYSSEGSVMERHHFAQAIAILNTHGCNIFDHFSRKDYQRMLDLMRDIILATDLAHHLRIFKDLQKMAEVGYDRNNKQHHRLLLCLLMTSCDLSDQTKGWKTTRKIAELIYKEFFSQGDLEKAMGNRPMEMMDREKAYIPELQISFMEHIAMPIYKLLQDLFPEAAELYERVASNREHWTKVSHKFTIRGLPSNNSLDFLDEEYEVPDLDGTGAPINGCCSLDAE
MEASURED_ENDPOINT: Ki (nM)

P: COc1ccc(Cc2nc(C(=O)N[C@@H](c3ccc(OC(F)(F)F)cc3)C(C)(C)C)cc(=O)[nH]2)cc1F
Q: CC[C@@H](NC(=O)c1cc(=O)[nH]c(Cc2ccc(OC)cc2)n1)c1ccc(SC(F)(F)F)cc1
R: C[C@@H](NC(=O)c1cc(=O)[nH]c(-c2ncccn2)n1)c1ccc(C(F)(F)F)c(F)c1
S: CC(C)(NC(=O)c1cc(=O)[nH]c(-c2ncccn2)n1)c1ccc(S(F)(F)(F)(F)F)cc1
Order by Ki, ascending. Field: ranking. Enter the labels in the order requested. P, Q, R, S

a: COc1ccc(Cc2nc(C(=O)N[C@@H](c3ccc(SC(F)(F)F)cc3)C(C)C)cc(=O)[nH]2)cc1
b: CC[C@@H](NC(=O)c1cc(=O)[nH]c(-c2ccccc2)n1)c1ccc(C(F)(F)F)c(F)c1
API: POST /compare with a and b ; response names the item with higher Ki. Record your answer as the label of the chosen record. b

* * *

target: human PDE2A1 (Homo sapiens (Human)); experiment: IMAP FP PDE selectivity panel, human PDE2A1; type: biochemical; settings: Human PDE2, Lab B; read-out: Human PDE2 Ki (nM) - Lab B
MEASURED_ENDPOINT: Ki (nM)

Example compounds with recorded Ki:
State, in one line, measured Ki of `CC(C)(C)[C@@H](NC(=O)c1cc(=O)[nH]c(-c2ncccn2)n1)c1ccc(OC(F)(F)F)cc1` 7.8

State, in one line, measured Ki of `CC(C)c1ccc([C@H](NC(=O)c2cc(=O)[nH]c(-c3ccccc3)n2)C2(C)CC2)cc1` 1.8

1: CC[C@@H](NC(=O)c1cc(=O)[nH]c(C)n1)c1ccc(C(F)F)cc1
2: O=C(N[C@@H](c1ccc(S(F)(F)(F)(F)F)cc1)C1CC1)c1cc(=O)[nH]c(C2CC2)n1
API: POST /compare with 1 and 2 ; response names the item with higher Ki. Record your answer as the label of the chosen record. 1
(1: 138 nM, 2: 8.6 nM)

a: CC[C@@H](NC(=O)c1cc(=O)[nH]c(C)n1)c1ccc2c(c1)OC(F)(F)O2
b: CC(C)(C)[C@@H](NC(=O)c1cc(=O)[nH]c(-c2ncccn2)n1)c1ccc(C(F)(F)F)cc1
API: POST /compare with a and b ; response names the item with higher Ki. Record your answer as the label of the chosen record. a
(a: 106 nM, b: 4.9 nM)
